# System: Beet Armyworm (Spodoptera exigua, LAPHEG)
# MEASUREMENT_PROTOCOL: Bioassay on Beet Armyworm (BAW), 128-well diet tray assay
# Assay type: in vivo
# MEASUREMENT_SETUP: 168 h, 50 μg/cm^2 on artificial diet, second instar larvae, five to seven days, 25° C., read-out: BAW % Control (or Mortality) rating
# Method: Example A: Bioassays on Beet Armyworm (Spodoptera exigua, LAPHEG) (“BAW”), Corn Earworm (Helicoverpa zea, HELIZE) (“CEW”), and Cabbage Looper (Trichoplusia ni, TRIPNI) (“CL”) Certain molecules disclosed in this document were tested against BAW, CEW, and CL using procedures described in the following examples. In the reporting of the results, the “BAW, CEW, & CL Rating Table” was used (See Table Section). […]
MEASUREMENT_TYPE: mortality at 50 µg/cm2

Would you please look over these solved cases?
In [3]: df
Out[3]:
                                   molecule  readout_value
0  O=C(NCCc1ccc(-c2ncn(-c3ccc(OC(F)(F)F)cc3)n2)cc1)Nc1ccnn1-c1ccccc1 [F51]             0%
1  Cc1ccccc1-n1ccnc1NC(=O)Nc1ccc(-c2ncn(-c3ccc(OC(F)(F)F)cc3)n2)cc1 [F21]     50 to 100%
2  O=C(Nc1ccc(-c2ncn(-c3ccc(OC(F)(F)F)cc3)n2)cc1)Nc1nccn1-c1ccccn1 [F31]     50 to 100%

Quick check: mortality at 50 µg/cm2 of FC(F)(F)Oc1ccc(-n2cnc(-c3ccc(CCNC(=S)Nc4ccnn4-c4ccccc4)cc3)n2)cc1 [F65] ?
50 to 100%

====

# Test system: Beet Armyworm (Spodoptera exigua, LAPHEG)
# MEASUREMENT_PROTOCOL: Bioassay on Beet Armyworm (BAW), 128-well diet tray assay
# Format: in vivo
# MEASUREMENT_SETUP: 168 h, 50 μg/cm^2 on artificial diet, second instar larvae, five to seven days, 25° C., read-out: BAW % Control (or Mortality) rating
Overview of recorded mortality at 50 µg/cm2 for various molecules

# mortality at 50 µg/cm2 lookup, item `Cc1ccc(-n2nccc2NC(=O)Nc2ccc(-c3ncn(-c4ccc(OC(F)(F)F)cc4)n3)cc2)c(C)c1`
50 to 100%

Need mortality at 50 µg/cm2 of `COc1ccccc1-c1nonc1NC(=O)Nc1ccc(-c2ncn(-c3ccc(OC(F)(F)F)cc3)n2)cc1` , thanks.
50 to 100%

// lookup mortality at 50 µg/cm2 for `COc1ccc(-c2ncsc2NC(=O)NCCc2ccc(-c3ncn(-c4ccc(OC(F)(F)F)cc4)n3)cc2)c(C)c1`
0%

Consider the molecule `Cc1ccc(-n2nccc2NC(=O)Nc2ccc(-c3ncn(-c4ccc(OC(F)(F)C(F)(F)F)cc4)n3)cc2)c(C)c1` and give its measured mortality at 50 µg/cm2.
50 to 100%

====

# Tested on: Yellow Fever Mosquito (Aedes aegypti, AEDSAE)
# MEASUREMENT_PROTOCOL: Bioassay on Yellow Fever Mosquito (YFM) larvae, 96-well plate
# Format: in vivo
# MEASUREMENT_SETUP: about 1 day-old larvae, 4000 ppm DMSO master plate diluted, graded after 3 days
MEASUREMENT_TYPE: YFM % Control (or Mortality) rating

Worked cases, YFM % Control (or Mortality) rating given:
                        structure_as_smiles                     target_or_test_system                     measurement_type  readout_value
0  Cc1ccc(C)c(-c2ncsc2NC(=O)NCCc2ccc(-c3ncn(-c4ccc(OC(F)(F)F)cc4)n3)cc2)c1  Yellow Fever Mosquito (Aedes aegypti, AEDSAE)  YFM % Control (or Mortality) rating     A (80-100)
1  Cc1cc(C)c(-c2c(NC(=O)NCCc3ccc(-c4ncn(-c5ccc(OC(F)(F)F)cc5)n4)cc3)on(C)c2=O)c(C)c1  Yellow Fever Mosquito (Aedes aegypti, AEDSAE)  YFM % Control (or Mortality) rating     A (80-100)
2  COc1ccccc1-n1nccc1NC(=O)Nc1ccc(-c2ncn(-c3ccc(OC(F)(F)F)cc3)n2)cc1  Yellow Fever Mosquito (Aedes aegypti, AEDSAE)  YFM % Control (or Mortality) rating     A (80-100)
3  Cc1ccc(C)c(-c2ncsc2NC(=O)Nc2ccc(-c3ncn(-c4ccc(OC(F)(F)F)cc4)n3)cc2)c1  Yellow Fever Mosquito (Aedes aegypti, AEDSAE)  YFM % Control (or Mortality) rating     A (80-100)
4  COc1ccccc1-c1nonc1NC(=O)Nc1ccc(-c2ncn(-c3ccc(OC(F)(F)F)cc3)n2)cc1  Yellow Fever Mosquito (Aedes aegypti, AEDSAE)  YFM % Control (or Mortality) rating     A (80-100)

Would you kindly look at the next entry?
Request body: readout YFM % Control (or Mortality) rating, system Yellow Fever Mosquito (Aedes aegypti, AEDSAE), query `COc1ccc(-c2ncsc2NC(=O)Nc2ccc(-c3ncn(-c4ccc(OC(F)(F)F)cc4)n3)cc2)c(C)c1` . Return the value.
A (80-100)

====

Each entry below carries its recorded mortality at 50 µg/cm2.
# System: Beet Armyworm (Spodoptera exigua, LAPHEG)
# MEASUREMENT_PROTOCOL: Bioassay on Beet Armyworm (BAW), 128-well diet tray assay
# Format: in vivo
# MEASUREMENT_SETUP: 168 h, 50 μg/cm^2 on artificial diet, second instar larvae, five to seven days, 25° C., read-out: BAW % Control (or Mortality) rating

Field: example entries. Status: answers known.
>>> df
                                   molecule  readout_value
0  Cc1ccc(C)c(-n2nccc2NC(=O)Nc2ccc(-c3ncn(-c4ccc(OC(F)(F)F)cc4)n3)cc2)c1     50 to 100%
1  CCOC(=O)c1cnn(-c2ccc(Cl)cc2C)c1NC(=O)Nc1ccc(-c2ncn(-c3ccc(OC(F)(F)F)cc3)n2)cc1             0%
2  CC(C)c1cccc(-n2ccnc2NC(=O)Nc2ccc(-c3ncn(-c4ccc(OC(F)(F)F)cc4)n3)cc2)c1     50 to 100%
3  O=C(Nc1ccc(-c2ncn(-c3ccc(OC(F)(F)F)cc3)n2)cc1)Nc1nonc1-c1ccccc1     50 to 100%
4  Cc1cccc(-n2ccnc2NC(=O)Nc2ccc(-c3ncn(-c4ccc(OC(F)(F)F)cc4)n3)cc2)c1     50 to 100%
5  O=C(Nc1ccc(-c2ncn(-c3ccc(OC(F)(F)F)cc3)n2)cc1)Nc1nccn1-c1ccccc1     50 to 100%
6  CC(C)CC(C)c1sccc1NC(=O)Nc1ccc(-c2ncn(-c3ccc(OC(F)(F)F)cc3)n2)cc1 (stereo not shown)             0%
7  Cn1oc(NC(=O)NCCc2ccc(-c3ncn(-c4ccc(OC(F)(F)F)cc4)n3)cc2)c(-c2c(Cl)cccc2Cl)c1=O     50 to 100%
8  Cc1ccc(-c2nonc2NC(=O)Nc2ccc(-c3ncn(-c4ccc(OC(F)(F)F)cc4)n3)cc2)c(C)c1     50 to 100%
9  Cc1cccc(C)c1C1=C(NC(=O)NCCc2ccc(-c3ncn(-c4ccc(OC(F)(F)F)cc4)n3)cc2)OCC1=O     50 to 100%

Which mortality at 50 µg/cm2 is reported for this molecule? `O=C(Nc1ccc(-c2ncn(-c3ccc(OC(F)(F)F)cc3)n2)cc1)Nc1nonc1-c1ccccc1OC(F)(F)F`
50 to 100%

Record request: mortality at 50 µg/cm2 value, item `COc1cccc(-n2ccnc2NC(=O)Nc2ccc(-c3ncn(-c4ccc(OC(F)(F)F)cc4)n3)cc2)c1`
50 to 100%

Bench note: what mortality at 50 µg/cm2 did `Cc1cc(C)c(-n2nccc2NC(=O)Nc2ccc(-c3ncn(-c4ccc(OC(F)(F)C(F)(F)F)cc4)n3)cc2)c(C)c1` show?
50 to 100%

Param item = `COc1ccc(-c2nonc2NC(=O)Nc2ccc(-c3ncn(-c4ccc(OC(F)(F)F)cc4)n3)cc2)cc1` ; retrieve measured mortality at 50 µg/cm2.
0 to 50%

Which value of mortality at 50 µg/cm2 has been reported for `Cc1ccc(C)c(-n2nccc2NC(=O)Nc2ccc(-c3ncn(-c4ccc(OC(F)(F)C(F)(F)F)cc4)n3)cc2)c1` in the records?
50 to 100%

Item `COc1ccccc1-n1nccc1NC(=O)Nc1ccc(-c2ncn(-c3ccc(OC(F)(F)C(F)(F)F)cc3)n2)cc1` has what recorded mortality at 50 µg/cm2?
50 to 100%

Please look up its mortality at 50 µg/cm2: `Cc1cc(C)c(-c2c(NC(=O)NCCc3ccc(-c4ncn(-c5ccc(OC(F)(F)F)cc5)n4)cc3)on(C)c2=O)c(C)c1`
50 to 100%

So what's the measured mortality at 50 µg/cm2 for this one? `O=C(Nc1ccc(-c2ncn(-c3ccc(OC(F)(F)F)cc3)n2)cc1)Nc1nccn1-c1cccnc1`
50 to 100%

Fill in the blank: the reported mortality at 50 µg/cm2 of `Cc1ccc(C)c(-c2ncsc2NC(=O)Nc2ccc(-c3ncn(-c4ccc(OC(F)(F)F)cc4)n3)cc2)c1` is ____.
50 to 100%
